System: rodent lifetime carcinogenesis bioassay, tumor incidence TD50
MEASUREMENT PROTOCOL: carcinogenic potency in animals, long-term in vivo studies, CPDB compilation (AID 1745844)
RUN CONDITIONS: rat; strain Fischer 344; males; in feed; site: thyroid gland; lesion: follicular-cell carcinoma; dosed 59 weeks; study length 104 weeks
PROPERTY NAME: TD50

The compound identified as "CN(C)c1ccc(Cc2ccc(N(C)C)cc2)cc1" registered its TD50 at 28.6 mg/kg/day

====

Test system: rodent lifetime carcinogenesis bioassay, tumor incidence TD50
MEASUREMENT PROTOCOL: carcinogenic potency in animals, long-term in vivo studies, CPDB compilation (AID 1745844)
RUN CONDITIONS: rat; strain Fischer 344; males; in feed; site: pituitary gland; lesion: carcinoma, NOS; dosed 103 weeks; study length 105 weeks
Calls of active or inactive are those of the source. The rule behind the calls is not given here.
PROPERTY NAME: TD50

The compound identified as "O=C1CCCCCN1" registered its TD50 at 3560 mg/kg/day (inactive)

====

Tested on: rodent lifetime carcinogenesis bioassay, tumor incidence TD50
MEASUREMENT PROTOCOL: carcinogenic potency in animals, long-term in vivo studies, CPDB compilation (AID 1745844)
RUN CONDITIONS: mouse; strain B6C3F1; females; in feed; site: any site (literature study); lesion: several types; types named in the paper; dosed 102 weeks; study length 102 weeks
PROPERTY NAME: TD50 (mg/kg/day)
Just the number please, in mg/kg/day, no unit attached.

The compound identified as "Cc1ccccc1N" registered its TD50 at 1350

====

Tested on: rodent lifetime carcinogenesis bioassay, tumor incidence TD50
MEASUREMENT PROTOCOL: carcinogenic potency in animals, long-term in vivo studies, CPDB compilation (AID 1745844)
RUN CONDITIONS: mouse; strain B6C3F1; females; by gavage; site: forestomach; lesion: squamous-cell carcinoma; dosed 104 weeks; study length 107 weeks
PROPERTY NAME: TD50

// returns TD50 for c1ccc(C2CO2)cc1 (stereo unspecified) with rodent lifetime carcinogenesis bioassay, tumor incidence TD50; value = 505 mg/kg/day

====

System: rodent lifetime carcinogenesis bioassay, tumor incidence TD50
MEASUREMENT PROTOCOL: carcinogenic potency in animals, long-term in vivo studies, CPDB compilation (AID 1745844)
RUN CONDITIONS: mouse; strain Charles River CD1; females; in feed; site: liver; lesion: eosinophilic adenoma; dosed 79 weeks; study length 79 weeks
PROPERTY NAME: TD50

The compound identified as "CCCCOCCOCCOCc1cc2c(cc1CCC)OCO2" registered its TD50 at 1120 mg/kg/day

====

System: rodent lifetime carcinogenesis bioassay, tumor incidence TD50
MEASUREMENT PROTOCOL: carcinogenic potency in animals, long-term in vivo studies, CPDB compilation (AID 1745844)
RUN CONDITIONS: mouse; strain CDF1; females; in feed; site: liver; lesion: several types; types named in the paper; dosed 97 weeks; study length 97 weeks
PROPERTY NAME: TD50

The molecule identified as "Nc1ccc2c(n1)[nH]c1ccccc12" registered its TD50 at 35.6 mg/kg/day

====

System: rodent lifetime carcinogenesis bioassay, tumor incidence TD50
MEASUREMENT PROTOCOL: carcinogenic potency in animals, long-term in vivo studies, CPDB compilation (AID 1745844)
RUN CONDITIONS: mouse; strain B6C3F1; males; in feed; site: liver; lesion: hepatocellular adenoma + hepatocellular carcinoma + neoplastic nodule; dosed 90 weeks; study length 92 weeks
PROPERTY NAME: TD50 (mg/kg/day)
Just the number please, in mg/kg/day, no unit attached.

The compound identified as "Clc1ccc2c(c1)Oc1ccc(Cl)cc1O2" registered its TD50 at 2120

====

Test system: rodent lifetime carcinogenesis bioassay, tumor incidence TD50
MEASUREMENT PROTOCOL: carcinogenic potency in animals, long-term in vivo studies, CPDB compilation (AID 1745844)
RUN CONDITIONS: rat; strain Fischer 344; females; inhaled; site: tongue; lesion: squamous-cell carcinoma + squamous-cell papilloma; dosed 104 weeks; study length 104 weeks
PROPERTY NAME: TD50 (mg/kg/day)
Just the number please, in mg/kg/day, no unit attached.

// returns TD50 for "C=CC(=C)Cl" with rodent lifetime carcinogenesis bioassay, tumor incidence TD50; value = 32.9

====

Tested on: rodent lifetime carcinogenesis bioassay, tumor incidence TD50
MEASUREMENT PROTOCOL: carcinogenic potency in animals, long-term in vivo studies, CPDB compilation (AID 1745844)
RUN CONDITIONS: mouse; strain CTM; females; in feed; site: thyroid gland; lesion: lymphosarcoma; dosed 40 weeks; study length 79 weeks
PROPERTY NAME: TD50
# output: number + unit

The compound identified as "O=[N+]([O-])c1ccc(-c2cnc3ccccn23)o1" registered its TD50 at 781 mg/kg/day

====

System: rodent lifetime carcinogenesis bioassay, tumor incidence TD50
MEASUREMENT PROTOCOL: carcinogenic potency in animals, long-term in vivo studies, CPDB compilation (AID 1745844)
RUN CONDITIONS: mouse; strain B6C3F1; females; inhaled; site: ovary; lesion: mixed tumor, benign; dosed 83 weeks; study length 104 weeks
PROPERTY NAME: TD50 (mg/kg/day)
Just the number please, in mg/kg/day, no unit attached.

The compound identified as "C=CC=C" registered its TD50 at 202

====

In this section we review reported TD50 values for a set of compounds.
System: rodent lifetime carcinogenesis bioassay, tumor incidence TD50
MEASUREMENT PROTOCOL: carcinogenic potency in animals, long-term in vivo studies, CPDB compilation (AID 1745844)
RUN CONDITIONS: rat; strain Fischer 344; females; in drinking water; site: liver; lesion: several types; types named in the paper; dosed 50 weeks; study length 75 weeks

compound="CC(O)CN(CCO)N=O (configuration not stated)" readout_value="1.12 mg/kg/day"

The compound identified as "CC(=O)CN(CC(C)=O)N=O" registered its TD50 at 0.232 mg/kg/day

====

Tested on: rodent lifetime carcinogenesis bioassay, tumor incidence TD50
MEASUREMENT PROTOCOL: carcinogenic potency in animals, long-term in vivo studies, CPDB compilation (AID 1745844)
RUN CONDITIONS: mouse; strain B6C3F1; females; by gavage; site: any site (literature study); lesion: several types; types named in the paper; dosed 104 weeks; study length 104 weeks
The source made the active and inactive calls. No rule for the calls is given here.
In this section we review reported TD50 values for a set of compounds.

The compound identified as "CCOC(=O)[C@H](CCc1ccccc1)N[C@@H](C)C(=O)N1Cc2ccccc2C[C@H]1C(=O)O" registered its TD50 at 8160 mg/kg/day (inactive)

====

In this section we review reported TD50 values for a set of compounds.
System: rodent lifetime carcinogenesis bioassay, tumor incidence TD50
MEASUREMENT PROTOCOL: carcinogenic potency in animals, long-term in vivo studies, CPDB compilation (AID 1745844)
RUN CONDITIONS: rat; strain Fischer 344; females; by gavage; site: any site (literature study); lesion: several types; types named in the paper; dosed 103 weeks; study length 104 weeks
Active and inactive are the calls of the source. The rule behind the calls is not given here.

Below, each entry is followed by its recorded TD50 result.
compound=C[C@H](CCC(=O)O)[C@H]1CC[C@H]2[C@@H]3CC[C@@H]4C[C@H](O)CC[C@]4(C)[C@H]3CC[C@]12C property_name=TD50 readout_value="686 mg/kg/day (inactive)"
compound=C=CCOC(=O)c1ccccc1C(=O)OCC=C property_name=TD50 readout_value="163 mg/kg/day"
compound=c1ccc2occc2c1 property_name=TD50 readout_value="577 mg/kg/day"

The compound identified as "O=c1ccc2ccccc2o1" registered its TD50 at 456 mg/kg/day

The compound identified as "ClC(Cl)C(Cl)(Cl)Cl" registered its TD50 at 1660 mg/kg/day (inactive)

The compound identified as "Oc1cccc(O)c1" registered its TD50 at 219 mg/kg/day (inactive)

The compound identified as "O=C1CCc2ccccc2O1" registered its TD50 at 3180 mg/kg/day

The compound identified as "CC1(C)S[C@@H]2[C@H](NC(=O)COc3ccccc3)C(=O)N2[C@H]1C(=O)O" registered its TD50 at 503 mg/kg/day

The compound identified as "[N-]=[N+]=[N-]" registered its TD50 at 19.1 mg/kg/day (inactive)

The compound identified as "O=CCC=O" registered its TD50 at 164 mg/kg/day

====

System: rodent lifetime carcinogenesis bioassay, tumor incidence TD50
MEASUREMENT PROTOCOL: carcinogenic potency in animals, long-term in vivo studies, CPDB compilation (AID 1745844)
RUN CONDITIONS: rat; strain Fischer 344; females; in feed; site: ear canal; lesion: squamous-cell carcinoma; dosed 78 weeks; study length 101 weeks
PROPERTY NAME: TD50

The compound identified as "O=[N+]([O-])c1ccc2c3c(cccc13)CC2" registered its TD50 at 90.5 mg/kg/day

Numbers sourced from PubChem BioAssay AID1745844.
